measured.attribute: melting point (°C)

- CCCNCCC [N-Propylpropan-1-amine]: -40
- N#C/C(=C\c1ccc(Cl)cc1)c1nc(-c2ccccc2)cs1: 104

P = O=C(/C=C/c1ccccc1)c1ccccc1 [trans-chalcone]
Q = CCOc1ccc(NC(C)=O)cc1
Hi team, can someone confirm which has the larger melting point: P or Q ? Thanks. Identify your selection by its label.
Q
(Q: 135 °C, P: 56 °C)

---

measured.attribute: melting point (°C)

- CC(=O)Oc1ccc(C(C)=O)cc1: 54
- CCCCCCC(=O)OCC [ethyl heptanoate]: -66
- Clc1nc[nH]c1Cl: 181
- Cc1cc(N)nc(C)n1: 185

I = Cc1cc(C=O)c(C)n1-c1ccccn1
II = O=C(O)c1cc(Cl)ccc1O
III = C[C@@H](N)C(=O)O
IV = Cc1c(N=C=O)cccc1N=C=O [toluene-2,6-diisocyanate]
V = CCc1c(C)cccc1C
Put the molecules in ascending order of melting point. In your reply, arrange the labels in the requested order.
V, IV, I, II, III
(V: -16 °C, IV: 13 °C, I: 62.5 °C, II: 174 °C, III: 291 °C)

---

measured.attribute: melting point (°C)

- ICI [diiodomethane]: 6
- COc1ccc2c(c1)[C@@]13CCCC[C@@H]1[C@@H](C2)N(C)CC3 [dextromorphan]: 110
- Nc1c(Cl)cc(Cl)cc1Cl [2,4,6-trichloroaniline]: 77
- O=C(NCc1ccccc1)c1ccccc1 [N-benzylbenzamide]: 106
- CCNc1nc(NC(C)(C)C)nc(SC)n1 [terbutryn]: 105
- NNC(=O)c1ccncc1 [Isoniazid]: 171
- O=[N+]([O-])c1c(Cl)c(Cl)cc(Cl)c1Cl [2,3,5,6-tetrachloro-nitrobenzene]: 99.5
- CCC1OC(=O)C(C)C(OC2CC(C)(OC)C(O)C(C)O2)C(C)C(OC2OC(C)CC(N(C)C)C2O)C(C)(O)CC(C)C(=O)C(C)C(O)C1(C)O (centres undefined): 135

1 = CCCCCCCl [1-chlorohexane]
2 = O=C1OC(=O)C2C3C=CC(C3)C12 (stereo not drawn) [cis-5-norbornene-endo-2,3-dicarboxylic anhydride]
3 = CN1CCC(CN2c3ccccc3Sc3ccccc32)C1 (centres undefined) [methdilazine]
4 = c1ccc2c(c1)ccc1cc3c(ccc4ccccc43)cc12 [dibenzo[a,h]anthracene]
Arrange the 4 entries by melting point so the values rise. A ranking is expressed here by listing the labels in the requested order.
1, 3, 2, 4
(1: -94 °C, 3: 87 °C, 2: 166 °C, 4: 266 °C)

---

measured.attribute: melting point (°C)

• COc1c(F)cc(F)cc1B(O)O = 114

1 = Cc1cc(C)c(CC#N)c(C)c1
2 = COc1ccc([C@@H]2Sc3ccccc3N(CCN(C)C)C(=O)[C@@H]2OC(C)=O)cc1
3 = NC(=O)c1ccccc1Br [2-bromobenzamide]
4 = O=Cc1ccccc1[N+](=O)[O-]
I would appreciate it if you could sort these 4 molecules by melting point, starting from the smallest number. Form entry: labels listed in requested order.
4, 1, 3, 2

---

measured.attribute: melting point (°C)

1 = CCCCCCCCNCCCCCCCC [di-n-octylamine]
2 = O=C1CCc2ccc(F)cc21
Which of these two has the smaller recorded melting point: 1 or 2 ? Mark your answer with the label of the selected entry.
1

---

measured.attribute: melting point (°C)

• c1ccc2cc3cc4ccccc4cc3cc2c1 [naphthacene] = 357
• Cn1c(=O)c2[nH]cnc2n(C)c1=O = 270
• O=C(O)Cc1c(F)cccc1F = 101
• Clc1cc(Cl)cc(Br)c1 = 75
• CC(Br)CCCBr (stereo not given) = -34

I = CC(=O)c1ccc(Oc2ccccc2)cc1
II = O=S(=O)(O)CCCN1CCOCC1
III = CC(N)(CO)CO
Exam item: list the entries in increasing order of melting point. Submit the labels in the order that the ranking request calls for.
I, III, II

I = COc1ccc(O)cc1 [4-methoxyphenol]
II = COc1ccc2c(c1)C(=O)C(=O)N2
Of I and II , whose reported melting point is numerically smaller? Write down the label of the entry you select.
I

---

measured.attribute: melting point (°C)

- CS(C)=O [dimethyl_sulfoxide]: 18

1 = O=C1CC[C@@H](C(=O)O)N1 [5-Oxo-L-proline]
2 = C=CCCCCCCCCCCC [1-tridecene]
3 = O=C(O)c1cc(=O)[nH]c(=O)[nH]1 [orotic acid]
Parameters: sort_field (melting point), sort_dir (desc). Enter labels, ranked according to the request.
3, 1, 2
(3: 345 °C, 1: 162 °C, 2: -23 °C)

a = CCOC(=O)c1cc2c(oc1=O)-c1ccc(OC)cc1CC2
b = CC(C)(C)OC(=O)C(C(=O)Cc1ccccc1)c1ccccc1 (stereo not given) [tert-butyl 3-oxo-2,4-diphenylbutanoate]
Please tell me which of the two, a or b , has the higher reported melting point value. When you have decided, please share the label of that item.
a
(a: 142 °C, b: 83 °C)

I = CCOC(=O)C(C)=O [ethyl pyruvate]
II = O=C(O)COc1cccnc1 [3-pyridyloxyacetic acid]
III = COc1ccc2ncccc2c1 [6-methoxyquinoline]
Ascending sort, melting point. The response must list the labels following the requested ordering.
I, III, II

---

measured.attribute: melting point (°C)

• N#Cc1ccc(O)c([N+](=O)[O-])c1 [4-Hydroxy-3-nitrobenzonitrile] = 141
• COc1ccc2c(c1)CC1(CCC(O)(c3ccc(C(C)(C)C)cc3)CC1)C2O (configuration not stated) = 104
• COc1cc(O)cc(OC)c1OC = 146
• CC(O)C(C)O (configuration not stated) [Butane-2,3-diol] = 25
• CCN(CC)CC [N,N-Diethylethanamine] = -115
• C=CC(=C)C = -146

1 = CCCCCCCCCCC [Undecane]
2 = O=C(/C=C/c1ccccc1)c1ccc(O)cc1 [4'-hydroxychalcone]
Given the listed records, identify the one among 1 and 2 with higher melting point. I would appreciate it if you answered with the label of your choice.
2
(2: 176 °C, 1: -26 °C)

a = CC(Cc1ccccc1)c1ccccc1 (configuration not stated)
b = O=C(C[C@H](NC(=O)OCc1ccccc1)C(=O)O)OCc1ccccc1
Exercise: compare a and b ; which one has the greater melting point? Mark your selection by writing its label.
b
(b: 106 °C, a: 0 °C)

---

measured.attribute: melting point (°C)

Worked examples follow.
- CC(C)(C)NC(=O)C(c1ccccc1)N(Cc1ccco1)C(=O)CNC(=O)OC(C)(C)C (stereo unspecified) [Ugi product 206B(UC)]: 203
- Cc1ccc(S(=O)(=O)OI(O)c2ccccc2)cc1 [hydroxy(tosyloxy)iodobenzene]: 134
- COC(CN1CCN(CC(O)C(OC)c2ccccc2)CC1)c1ccccc1 (stereo unspecified): 83
- CC(=O)Oc1ccc(CC#N)cc1: 50

I = O=C(O)CCCC[C@@H]1CCSS1 [5-[(3R)-1,2-Dithiolan-3-yl]pentanoic acid]
II = O=C(O)Cc1ccccc1O [2-Hydroxyphenylacetic acid]
In the pair I and II , the larger recorded melting point belongs to which? Write down the label of the entry you select.
II

---

measured.attribute: melting point (°C)

Recorded melting point, per entry:
* O=C1CC(=O)NC(=O)N1 [Barbituric acid] | 248
* O=C(O)CC(CC(=O)O)C(=O)O [tricarballylic acid] | 160
* CCCSc1ccc2[nH]c(NC(=O)OC)nc2c1 [albendazole] | 209

P = Cc1cccc(I)c1 [3-iodotoluene]
Q = O[C@H](c1ccccc1)[C@@H](O)c1ccccc1 [meso-hydrobenzoin]
// pick min by melting point: P , Q Could you answer with the label of the item you picked?
P

I = Cc1ccc(-c2cc(C(F)(F)F)nn2-c2ccc(S(N)(=O)=O)cc2)cc1 [celecoxib]
II = c1ccc2c(c1)ccc1ccccc12 [Phenanthrene]
Min melting point? I | II Indicate which entry you chose by stating its label.
II

a = CC1(C)C2CCC1(C)C(O)/C2=C\CC(=O)O (stereo unspecified)
b = O=C(O)C1=Cc2cc(Cl)ccc2OC1 [6-chloro-2h-chromene-3-carboxylic acid]
Looking at recorded values for melting point, does a or b come in lower? Give the label of your selection.
a

P = COc1ccc(Cl)c([N+](=O)[O-])c1 [4-chloro-3-nitroanisole]
Q = CC(=O)OCC(COC(C)=O)OC(C)=O [triacetin]
R = O=C1C=CCCC1 [2-cyclohexen-1-one]
Order each entry by recorded melting point, climbing from the minimum. Please reply with the labels ordered as requested. Many thanks.
R, Q, P

---

measured.attribute: melting point (°C)

Observe how each entry below is paired with its result.
* CC(=O)Nc1ccc(C(=O)O)cc1 [4-acetamidobenzoic acid] | 260
* Nc1ccc(N2CCOCC2)cc1 | 131
* CCOC(=O)c1cc(-c2ccccc2)n(-c2ccc(Cl)cc2Cl)n1 | 124
* CC1CCCCC1 [methylcyclohexane] | -126
* COc1ccc(-c2csc(C(C#N)=Cc3cccs3)n2)cc1 | 141
* C=C(C)Br | -87

I = O=C(N[C@@H](CO)C(=O)O)OCc1ccccc1
II = CC(=O)Nc1ccc(O)cc1 [4-acetylaminophenol]
Given I and given II , which shows the smaller recorded melting point? Kindly state the label of the option you pick.
I

1 = CC(C)C(N)=O [isobutyramide]
2 = Cc1c(C)c(/C=CC(C)=CC=CC(/C)=CC(=O)O)c(C)cc1OC
3 = Cc1cc2nsnc2cc1C
4 = C/C=C/C=C/CO [trans,trans-2,4-hexadien-1-ol]
List these items ordered by melting point, big to small. I'd appreciate it if you listed the labels in the requested order.
2, 1, 3, 4
(2: 229 °C, 1: 129 °C, 3: 84 °C, 4: 31 °C)

a = CC(C)(C)OC(=O)N1CCS[C@H]1C(=O)O [(S)-3-boc-thiazolidine-2-carboxylic acid]
b = CC(C)(C)OC(=O)Nc1ccc(C#N)cn1
Look at a and b . Which one has the lower recorded melting point number? Mark your answer with the label of the selected entry.
a
(a: 92 °C, b: 173 °C)
